test system: HT-29 cells; assay: Cellular RIP1 inhibitory activity: necroptosis of HT-29 cells induced by TNF-α/SMAC mimetic/zVAD-FMK, CellTiter-Glo viability; type: cell-based; details: Homo sapiens; HT-29 cells; TNF-α 10 ng/ml, SMAC mimetic 6 μM, zVAD-FMK 10 μM; 20 hours; geometric mean, 10 points, duplicates; read-out: EC50 (Cell activity; Necrosis or Necroptosis Inhibitory Activity)
Exercise: for every item that follows, state its recorded EC50.

Noted EC50 for CCOC1CN(C(=O)c2nc(N3CCN(C(=O)N4N=CC[C@H]4c4cc(F)cc(F)c4)CC3)ncc2F)C1 [Compound 23] , tested on HT-29 cells: 0.1 to 100 nM

Noted EC50 for COC1CN(C(=O)c2nc(N3CCN(C(=O)N4N=CCC4c4cncc(Cl)c4)CC3)ncc2F)C1 (stereo not shown) [Compound 66] , tested on HT-29 cells: 0.1 to 100 nM

Noted EC50 for COC1CN(C(=O)c2nc(N3CCN(C(=O)N4N=CC[C@H]4c4cncc(F)c4)CC3)ncc2F)C1 [Compound 52] , tested on HT-29 cells: 0.1 to 100 nM

Noted EC50 for COC1CN(C(=O)c2nc(N3CCN(C(=O)N4N=CC[C@H]4c4cncc(C#N)c4)CC3)ncc2F)C1 [Compound 53] , tested on HT-29 cells: 0.1 to 100 nM

Noted EC50 for COC1CN(C(=O)c2nc(N3CCN(C(=O)N4N=CC[C@H]4c4cc(F)cc(C#N)c4)CC3)ncc2Cl)C1 [Compound 63] , tested on HT-29 cells: 0.1 to 100 nM

Noted EC50 for O=C(c1nc(N2CCN(C(=O)N3N=CC[C@H]3c3cc(F)cc(F)c3)CC2)ncc1F)N1CC(F)(F)C1 [Compound 12] , tested on HT-29 cells: 0.1 to 100 nM

Noted EC50 for NC(=O)c1cncc(N2CCN(C(=O)N3N=CC[C@H]3c3cc(F)cc(F)c3)CC2)n1 [Compound 39] , tested on HT-29 cells: 100 to 1000 nM
